src = PubChem BioAssay (NCI)

I'd appreciate it if you could supply TGI values for the items below.
# System: SF-539 CNS
# Test Method Notes: NCI tumour cell line growth inhibition, 48 h
Enter your answer as a number in µM; do not include the unit.

# lookup: TGI of O=P1(Oc2ccccc2)C(c2ccccc2)C(c2ccccc2)=NN1c1ccccc1 (stereo not given)
35.9

Sample BrCc1ccc(CBr)cc1 — what was its TGI?
11.8

Quick one: TGI of O=C(O)/C(Cl)=C(\Cl)C(=O)Nc1ccc(Cl)c(Cl)c1Cl ?
35.6

Name the recorded TGI for CC1(C)OC2C(=O)C=C(COCc3ccccc3)C2O1 (stereo not given) .
60.3

* * *

Can you tell me TGI for the items I'm about to list?
# System: HOP-92 NSCLC
# Test Method Notes: NCI tumour cell line growth inhibition, 48 h

// returns reported TGI for input COC(=O)c1c(OC(C)=O)ccc2c1c1c(OC(C)=O)c3ccccc3c(OC(C)=O)c1n2Cc1ccccc1
3.27 µM

Look up TGI: COc1cc(C(c2ccc3c(c2)OCO3)N2C(=O)CCC2C(=O)O)cc(OC)c1OC (centres undefined)
> 100 µM

Tell me the measured TGI of COc1ccc(N=C2C(=Nc3ccc(OC)cc3)N(c3ccccc3)C(=S)N2N=C=C2Sc3ccccc3N2C)cc1 , please.
> 100 µM

# get_value(readout='TGI', item= CC(C)(C)c1ccc(C(=O)Nc2sc3c(c2C(N)=O)CCC(=O)C3)cc1 )
2.96 µM

# lookup: TGI of Cc1cc(N(CCC#N)CCC#N)ccc1/C=C1N=C(/C=C\c2ccccc2)N(c2ccc(Cl)cc2)C\1=O
> 100 µM

Request the reported TGI associated with COc1ccc(/C=C2\CN(C)C/C(=C\c3ccc(OC)c(OC)c3OC)C2=O)c(OC)c1OC
1.73 µM

Give its TGI value. Item: COc1cc(-c2cc(-c3cc([N+](=O)[O-])c(/C=N/NC(=O)c4ccncc4)o3)ccc2OC)ccc1C
> 100 µM

Which value of TGI has been reported for COc1ccc(OC)c(C2SCC(=O)N2NC(=O)C(O)c2ccccc2)c1 (centres undefined) in the records?
> 100 µM

I am curious: what TGI value has been reported for O=C(NC1CCCC1=O)c1ccccc1 (centres undefined) ?
> 100 µM

* * *

# System: OVCAR-4 ovarian
# Test Method Notes: NCI tumour cell line growth inhibition, 48 h
Provide the recorded TGI for the entries that follow.

Please report the recorded TGI for COc1cc2c(cc1OC)C1(c3ccc(Cl)cc3)ON=C(c3ccccc3)N1CS2 (centres undefined) .
> 100 µM

Can you look up the measured TGI of Nc1ccccc1SCc1csc(-c2ccc(Cl)cc2)n1 for me?
> 77.1 µM

What does the data say about its TGI? Entry: CC(C)(CC(O)C#N)/[N+]([O-])=[N+](\[O-])C(C)(C)CC(O)C#N (centres undefined)
81 µM

Look up TGI: CCCCn1c(=O)c2c(nc3n2CCCN3CCc2ccc(OCC(=O)NCCN(CC)CC)cc2)n(CCCC)c1=O
9.76 µM

Which TGI value is on record for COc1cc2c(c(OC)c1OC)-c1ccc(SC)c(=O)cc1[C@@H](NC1OC(CO)C(O)C(O)C1O)CC2 (some centres undefined) ?
> 100 µM

May I ask what TGI has been recorded for N/N=C1\CC(=O)NC(=O)N1 ?
> 100 µM

Entry under review: CCOC(=O)CSc1nnc(C(Sc2nc(-c3ccccc3)c(-c3ccccc3)[nH]2)C(C)C)n1-c1ccccc1 (centres undefined) . Reported TGI?
28.5 µM

TGI for COc1ccc(C(=O)N2c3ccccc3Sc3ccccc32)c(OC)c1 ?
> 100 µM

Report TGI for CN(CC(N)=O)C(=O)N(CCCl)N=O please.
> 100 µM

I am curious: what TGI value has been reported for CC(C)(C)c1cc(C2COC(c3cc(C(C)(C)C)c(O)c(C(C)(C)C)c3)CO2)cc(C(C)(C)C)c1O (centres undefined) ?
> 100 µM

What does the data say about its TGI? Entry: CC(=O)OCC1OC(n2c(=O)[nH]c(=O)c3sccc32)C(Br)C1OC(C)=O (centres undefined)
> 100 µM

Which value of TGI has been reported for COCCOCOc1ccc(OCOCCOC)c2c1C(=O)c1ccccc1C2=O in the records?
> 100 µM

TGI lookup needed for CC(C)[C@@H]1ON1C(C)c1ccccc1 (some centres undefined) , thanks.
> 100 µM

Requested field: TGI. Item: CCN(c1cccc(NC(=S)Nc2ccccc2N(CC)c2cc(-c3ccccc3)no2)c1)c1cc(-c2ccccc2)no1
> 100 µM

Reported TGI, compound CCOc1ccc(-n2nnc3c(N)nc(N)nc32)cc1 : ____
> 100 µM

Endpoint output: TGI of CCCc1ccc(NCc2cc(OC)c(OC)c(OC)c2)cc1 . Value?
> 100 µM

Record request: TGI value, item Cc1ccc(/C(O)=C/C(=O)C(=O)NN=C(c2ccccc2)c2ccccc2)cc1
> 100 µM

Looking for the measured TGI of C[CH2][Pb]([CH2]C)([CH2]C)[O]C(=O)c1ccc2ccccc2n1 , can you help?
> 10 µM

// TGI lookup, key: COc1cc(C(c2ccc3c(c2)OCO3)N2C(=O)CCC2C(=O)O)cc(OC)c1OC (centres undefined)
> 100 µM

Value lookup for TGI; key = CC(=O)Oc1ccccc1C(=O)/C=C/c1cccc([N+](=O)[O-])c1
23.1 µM

Given CC1(C)C2CCC13CS(=O)(=O)N1O[C@]13C(=O)O2 (some centres undefined) , state its recorded TGI.
> 100 µM

Name the recorded TGI for CCNC1=C(NC(=O)CC)C(=O)c2ccccc2C1=O .
> 100 µM

Query: TGI; subject: CN(CCCCCl)P(=O)(OCCS(=O)(=O)CC(NC(=O)CCC(N)C(=O)O)C(=O)NC(C(=O)O)c1ccccc1)OCC1OC(n2cc(F)c(=O)[nH]c2=O)CC1O (centres undefined)
> 100 µM

Record request: TGI value, item Nc1ccc(-c2nc3ccccc3[nH]2)c2ccccc12
> 72.5 µM

* * *

# Test system: COLO 205 colon
# Test Method Notes: NCI tumour cell line growth inhibition, 48 h
Property: GI50

Record request: GI50 value, item CC1=CC(=O)C(O)C2(C)C1CC(O)C13COC4(C)C(OC(=O)C41)C(O)C23 (configuration not stated)
12100 nM

Consider the molecule CCN(Cc1ccc(Cl)s1)c1ccc(CO)c(Cl)c1 and give its measured GI50.
1730 nM

GI50 lookup needed for C#CCOc1cccc(Nc2ncnc3c(NC(=O)CCl)cccc23)c1 , thanks.
18700 nM

Suppose we examine the molecule CC(C)(C)c1ccc(C(=O)Nc2sc3c(c2C(N)=O)CCC(=O)C3)cc1 ; what GI50 value has been reported?
617 nM

Entry COc1cc2c(c(OC)c1OC)-c1ccc(SC)c(=O)cc1[C@@H](NC1OC(CO)C(O)C(O)C1O)CC2 (some centres not stated) : reported GI50 = ?
16.1 nM

So what's the measured GI50 for this one? COc1ccc2c(c1)OC1=C(C(=O)OC1)C2c1cc(OC)c2c(c1)OCO2 (configuration not stated)
31 nM

Tell me the measured GI50 of CC1(C)N=C(N)N=C(N)N1c1ccc(CCCCc2ccc(S(=O)(=O)F)cc2)c(Cl)c1 , please.
340 nM

Need GI50 of O=C(Oc1cccnc1)c1ccsc1Nc1ccnc(C(F)(F)F)c1 , thanks.
4890 nM

GI50 for N#Cc1ccc(N=Cc2c([O-])ccc3ccccc23)cc1.[C-]#[O+].[C-]#[O+].[Ir] ?
1960 nM

Field request: GI50 | item: O=[N+]([O-])c1cc(S(=O)(=O)Oc2ccccc2)ccc1Cl
3850 nM

Form field: reported GI50 of O=c1[nH]cnc2c(C3NC(CO)C(O)C3O)c[nH]c12 (configuration not stated)
> 100000 nM

# GI50 lookup, item Cc1nc2ccccc2c(/C=C/c2ccc(Br)cc2)c1C(=O)/C=C/c1ccccc1
1510 nM

* * *

For each entry below, report its TGI value.
# Test system: UACC-62 melanoma
# Test Method Notes: NCI tumour cell line growth inhibition, 48 h
Expressed in µM, but write only the number.

Notebook: pull reported TGI for UACC-62 melanoma, entry CCN1C(=O)N(CC)C2C1NN=c1s/c(=C\c3ccccc3Br)c(=O)n12 (stereo not given)
20.6

Param readout = TGI; param system = UACC-62 melanoma; param query = Cc1cc(O)c(C(C)C)cc1C1(c2cc(C(C)C)c(O)cc2C)OC(=O)c2ccccc21 ; response: value
2.87

Notebook entry, UACC-62 melanoma assay: TGI of CC(C)=CCC/C(C)=C/CC/C(C)=C/CC/C=C(\C)CC/C=C(\C)CCC(=O)Nc1ccn(C2OC(CO)C(O)C2(F)F)c(=O)n1 (stereo not given) = ?
15.2

// lookup TGI | system=UACC-62 melanoma | key= CC1(C)N=C(N)N=C(N)N1c1ccc(CCCCc2ccc(S(=O)(=O)F)cc2)c(Cl)c1
19.6
